- targetUnderTest: T1, PUF4 RNA-binding domain (Saccharomyces cerevisiae, UniProt P25339 537-888)
- T1 sequence: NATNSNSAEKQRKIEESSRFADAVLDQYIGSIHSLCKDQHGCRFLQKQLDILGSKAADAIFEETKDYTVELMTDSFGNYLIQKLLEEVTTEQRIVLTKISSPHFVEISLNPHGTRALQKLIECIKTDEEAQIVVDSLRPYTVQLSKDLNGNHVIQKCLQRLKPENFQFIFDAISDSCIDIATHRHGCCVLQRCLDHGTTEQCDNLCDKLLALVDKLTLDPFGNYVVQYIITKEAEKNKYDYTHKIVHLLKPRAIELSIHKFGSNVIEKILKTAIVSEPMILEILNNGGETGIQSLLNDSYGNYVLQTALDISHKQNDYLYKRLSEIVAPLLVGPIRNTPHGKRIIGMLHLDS
- protocolNotes: Mg; RNA-MaP; 20 mM Na-HEPES pH 7.4, 30 mM KOAc, 0.75 mM MgCl2, 0.1% Tween-20, 5% glycerol, 0.1 mg/mL BSA, 2 mM DTT; 25 C; 0.0125-409.6 nM protein
- condition: tags: N-His6-TEV cleaved; C-SNAP kept, Cy3B-labelled; label: tethered on chip by stalled RNA polymerase
Measured Kd values are reported for all entries that follow.
measuredParameter: Kd (nM)

UCUCUUUGUAUACGUCUCUU (ssRNA) [Ic_S1_P3E.1_K3.1_C3.1_H3.1_A3.1_F3.1_[T7C]_[A8G]_T3.1]: 82
Ic_S4_P5E.1_K5.1_C5.1_H5.1_A5.1_[T5A]_[T6C]_[A7C]_F5.1_[T8C]_[T9A]_[A10T]_T5.1 (ssRNA) RNA: UUUGACAACUGAUCGUUCUUUCUUGUAACCCAUUUCUUUCUCGAUCAGUUGUCUUU: 531
Ia_S4_P4E.1_K4.1_C4.1_H4.1_[T3C]_A4.1_F4.1_T4.1 (ssRNA) RNA: UUUGACAACUGAUCGUUCUUUCUUGCAUAUUAUUCUUUCUCGAUCAGUUGUCUUU: 21
Ie_S2_P5E.1_K5.1_C5.1_H5.1_A5.1_F5.1_[+8TTCC]_T5.1 (ssRNA) RNA: UUUGAUUAAUAUGAUAUCGUUCUUUCUUGUAUUAUUUCCUAUUCUUUCUCGAUAUCAUAUUAAUCUUU: 9.45
Ic_S4_P4E.1_K4.1_C4.1_H4.1_A4.1_[T5C]_F4.1_[T8G]_[A9C]_T4.1 (ssRNA) RNA: UUUGACAACUGAUCGUUCUUUCUUGUACAUGCUUCUUUCUCGAUCAGUUGUCUUU: 14.3
